- Test system: PC-3
- Test Description: Potency index, ratio of IC50 for curcumin to IC50 for compound against human PC3 cells assessed as inhibition of cell proliferation after 3 days by WST1 assay
- Type: functional
Label condition met when Ratio IC50 < 40; otherwise condition not met.

>  <Compound>
CCCC(C)n1ccnc1/C=C/C(=O)/C=C/c1nccn1C(C)CCC (configuration not stated)

>  <Measured On>
PC-3

>  <Class Name>
condition not met

$$$$
>  <Compound>
CCC(CC)n1ccnc1/C=C/C(=O)/C=C/c1nccn1C(CC)CC

>  <Measured On>
PC-3

>  <Class Name>
condition met

$$$$
>  <Compound>
Cn1cc(Br)c(/C=C/C(=O)/C=C/c2nn(C)cc2Br)n1

>  <Measured On>
PC-3

>  <Class Name>
condition not met

$$$$
>  <Compound>
CCCCCn1c(/C=C/C(=O)/C=C/c2nc3ccccc3n2CCCCC)nc2ccccc21

>  <Measured On>
PC-3

>  <Class Name>
condition not met

$$$$
>  <Compound>
CCCCn1ccnc1/C=C/C(=O)/C=C/c1nccn1CCCC

>  <Measured On>
PC-3

>  <Class Name>
condition met

$$$$
>  <Compound>
CC(C)CCn1ccnc1/C=C/C(=O)/C=C/c1nccn1CCC(C)C

>  <Measured On>
PC-3

>  <Class Name>
condition met

$$$$
>  <Compound>
Cc1nc(C(F)(F)F)c(/C=C/C(=O)/C=C/c2sc(C)nc2C(F)(F)F)s1

>  <Measured On>
PC-3

>  <Class Name>
condition met

$$$$
